Tested on: Pseudomonas aeruginosa HNR 1537
Assay: Antibacterial spectrum, MIC by twofold agar dilution method
Type: cell-based
Details: HNR1537, 10^6 cfu/ml, clinically isolated strain, Gram -, 18 hrs at 37° C
MIC strictly under 20 µg/mL means True; at 20 µg/mL or over means False.

Look over these answered cases.
CC1Sc2c(C(=O)O)c(=O)c3cc(F)c(N4CCC(N)C4)c(Cl)c3n21 (centres unmarked)	True
CC1Sc2c(C(=O)O)c(=O)c3cc(F)c(N4CC[C@H](N)C4)c(F)c3n21 (single isomer, unassigned)	True
CC1Sc2c(C(=O)O)c(=O)c3cc(F)c(N4CCC(N)C4)c(F)c3n21 (centres unmarked)	True

Regarding CC1Sc2c(C(=O)O)c(=O)c3cc(F)c(N4CC[C@H](N(C)C)C4)c(F)c3n21 (some centres unmarked) , kindly confirm whether its MIC is beneath 20 µg/mL.
False

Regarding CC1Sc2c(C(=O)O)c(=O)c3cc(F)c(N4CC[C@H](N)C4)c(Cl)c3n21 (single isomer, unassigned) , kindly confirm whether its MIC is beneath 20 µg/mL.
True

Regarding CC1Sc2c(C(=O)O)c(=O)c3cc(F)c(N4CCC(N(C)C)C4)c(Cl)c3n21 (centres unmarked) , kindly confirm whether its MIC is beneath 20 µg/mL.
False

Regarding CC1Sc2c(C(=O)O)c(=O)c3cc(F)c(N4CC[C@H](N(C)C)C4)c(Cl)c3n21 (some centres unmarked) , kindly confirm whether its MIC is beneath 20 µg/mL.
False

Regarding CC1Sc2c(C(=O)O)c(=O)c3cc(F)c(N4CCC(N(C)C)C4)c(F)c3n21 (centres unmarked) , kindly confirm whether its MIC is beneath 20 µg/mL.
False
